The reported numbers originate from patent US20110046066A1.

biological target: C-IAP2 BIR3 (Homo sapiens, UniProt Q13489); construct: 0.4 μM C-IAP-2 BIR3; assay: Fluorescence polarization peptide binding assay, C-IAP2 BIR3; conditions: 0.4 μM C-IAP-2 BIR3, 5 nM AVP-diPhe-FAM probe, one hour incubation
Sequence (Q13489 238-349 limits assumed): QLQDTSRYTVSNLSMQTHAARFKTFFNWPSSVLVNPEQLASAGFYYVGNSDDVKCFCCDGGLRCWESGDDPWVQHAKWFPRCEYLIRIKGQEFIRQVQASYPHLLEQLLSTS
metric: IC50 (µM)

(I) CN[C@@H](C)C(=O)N[C@H](C(=O)N[C@H](c1nc(-c2ccc(F)c3ccccc23)cs1)C(C)(C)SCc1ccc(OC)cc1)C1CCCCC1
(II) CN[C@@H](C)C(=O)N[C@H](C(=O)N(C)[C@H](C(=O)Nc1ccccc1-c1ncccn1)C(C)C)C1CCCCC1
(III) CN[C@@H](C)C(=O)N[C@H](C(=O)N[C@H](C(=O)Nc1snnc1-c1ccccc1)C(C)(C)S(C)(=O)=O)C1CCCCC1
// smallest IC50 at index 0, largest at the end Write the labels, ordered according to the request.
III, I, II
